target: ALKBH5 (Homo sapiens, UniProt Q6P6C2); construct: SUMO (N); His10 (N); made in house; host or cells: E. coli BL21; test: Fluorescence enzymatic inhibition assay (m6A7-Broccoli / DFHBI-1T), ALKBH5; type: biochemical; conditions: highest concentration 40 μM
Sequence (Q6P6C2 whole entry): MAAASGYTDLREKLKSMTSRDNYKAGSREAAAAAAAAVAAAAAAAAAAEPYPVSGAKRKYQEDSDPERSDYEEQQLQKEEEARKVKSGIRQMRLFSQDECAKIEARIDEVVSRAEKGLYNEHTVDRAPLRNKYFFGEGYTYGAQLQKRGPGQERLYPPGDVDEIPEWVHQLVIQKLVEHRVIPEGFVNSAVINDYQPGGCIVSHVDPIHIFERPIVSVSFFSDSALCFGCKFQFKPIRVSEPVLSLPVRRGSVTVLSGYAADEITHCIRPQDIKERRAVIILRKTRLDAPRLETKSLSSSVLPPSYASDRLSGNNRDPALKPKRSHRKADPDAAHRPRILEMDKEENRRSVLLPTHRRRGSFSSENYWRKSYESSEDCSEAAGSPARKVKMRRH
Measure: inhibition of ALKBH5 at the highest concentration measured

Consider the following illustrative entries.
### Prompt Recall the reported inhibition of ALKBH5 at the highest concentration measured of COc1ccc2cc(-c3cncnc3)ccc2c1 [FTO-5, 5-(6-methoxynaphthalen-2-yl)pyrimidine] when tested on ALKBH5 (Homo sapiens, UniProt Q6P6C2).
### Response no measurable inhibition

### Prompt Given Oc1ccc2cc(-c3cncnc3)ccc2c1 [FTO-1, 6-(pyrimidin-5-yl)naphthalen-2-ol] , report its inhibition of ALKBH5 at the highest concentration measured on ALKBH5 (Homo sapiens, UniProt Q6P6C2).
### Response no measurable inhibition

### Prompt Provide ALKBH5 (Homo sapiens, UniProt Q6P6C2) inhibition of ALKBH5 at the highest concentration measured reading for Cc1ccc2cc(-c3cncnc3)ccc2n1 [FTO-7, 2-methyl-6-(pyrimidin-5-yl)quinoline] .
### Response no measurable inhibition

### Prompt // fetch inhibition of ALKBH5 at the highest concentration measured; item: COc1ccc2cc(-c3cnc(N)nc3)ccc2c1 [FTO-12] ; system: ALKBH5 (Homo sapiens, UniProt Q6P6C2)
### Response no measurable inhibition

Now let's try a different one.
### Prompt Find inhibition of ALKBH5 at the highest concentration measured for COCCNc1ncc(-c2ccc(OCc3ccccc3)cc2)cn1 [FTO-18] on ALKBH5 (Homo sapiens, UniProt Q6P6C2) and write it down.
### Response no measurable inhibition

* * *

// values below are IC50; system is UniProt:Q6P6C2
// return numeric value only (unit: µM, not printed)

### Prompt Determine reported IC50 for COC(=O)C1COC(c2ccccc2F)N1 (centres unmarked) ; test system: UniProt:Q6P6C2.
### Response 29.8

Now look at this one.
### Prompt Give UniProt:Q6P6C2 IC50 for the following molecule: COC(=O)C1COC(c2ccc(OC)cc2)N1 (centres unmarked)
### Response 16.7

* * *

test system: MOLT-4; experiment: High Throughput Screen for growth inhibition, MOLT-4; type: cell-based; conditions: MOLT-4, Leukemia; 3 days; unit not given
Growth Inhibition (GI) Values for assorted molecules
// response body must contain only the number

Worked cases, Growth Inhibition (GI) Values given:
### Prompt Please list Growth Inhibition (GI) Values recorded for the molecule Clc1ccccc1-c1ccc(CNCC2(N3CCCC3)COC2)o1
### Response 24.595

### Prompt Supply recorded Growth Inhibition (GI) Values for c1ccc(-c2ccc(CNCC3(N4CCCC4)COC3)s2)cc1 here.
### Response 24.366

### Prompt Read the entry CN(Cc1ccc(C(F)(F)F)cc1)c1ccc(CNC2CC2)cn1 and write its reported Growth Inhibition (GI) Values.
### Response 14.304

New cases:
### Prompt State its Growth Inhibition (GI) Values: FC1CCN(C2(CNCc3ccc(-c4ccccc4Cl)o3)COC2)C1 (stereo not shown)
### Response 27.521
